Assay: in vitro
Design: species or system HB2, CCD841
Settings: human, hek293 cells
Quick rule for you: viability at 48 h, 10 µM under 80% gets satisfied, anything else gets not satisfied.

Before answering, review these 8 worked examples.
compound	assigned_label
C=CC(=O)N1CCNC(=O)C1c1c(F)cccc1Cl (stereo not shown)	not satisfied
O=C(CCl)N1CCN(S(=O)(=O)c2cccs2)CC1	satisfied
O=C(CCl)Nc1c(Cl)cccc1Cl	not satisfied
O=C(CCl)N1CCCC1c1cccs1 (stereo not shown)	satisfied
CCN(C(=O)CCl)c1ccccc1C	satisfied
C=CC(=O)N1CC(C(=O)NC)C1	not satisfied
CCc1ccccc1NC(=O)CCl	satisfied
O=C(CCl)Nc1nc2c(s1)CCC2	satisfied

input: Report whether reported viability at 48 h, 10 µM is lower than 80% (strictly) for Cc1ccc(-c2csc(NC(=O)CCl)n2)cc1
output: satisfied

input: Report whether reported viability at 48 h, 10 µM is lower than 80% (strictly) for C=CC(=O)N1CCN(C(C)C)c2ccccc2C1
output: not satisfied

input: Report whether reported viability at 48 h, 10 µM is lower than 80% (strictly) for CC(C)(C)C(=O)NNC(=O)CCl
output: not satisfied

====

Experiment: in vitro
Set-up: species or system CCD841, HEK293
Conditions: human, hb2 cells, read-out: HB-2 Cells Viability (%)
metric_name: viability at 48 h, 10 µM (%)
Expressed in %, but write only the number.

Below, 3 compounds whose answers are already recorded.
substance_smiles	assay_value
C=CC(=O)NC1(c2nnc[nH]2)CCC1	102
C#Cc1cccc(NC(=O)NC(=O)CCl)c1	74.1
CCN(C(=O)CCl)C1CC1	100

input: Would you kindly share the measured viability at 48 h, 10 µM for C=CC(=O)N1CCC2(CC1)NC(=O)C1(CCCCC1)N2 ?
output: 101

====

NUDT7 listing for selected compounds.
Target: NUDT7 (Homo sapiens, UniProt P0C024)
Construct: residues 14-235, E. coli, pNIC28-Bsa4, N-terminal His6 tag removed by TEV, construct 26672 Da
Sequence (P0C024 14-235): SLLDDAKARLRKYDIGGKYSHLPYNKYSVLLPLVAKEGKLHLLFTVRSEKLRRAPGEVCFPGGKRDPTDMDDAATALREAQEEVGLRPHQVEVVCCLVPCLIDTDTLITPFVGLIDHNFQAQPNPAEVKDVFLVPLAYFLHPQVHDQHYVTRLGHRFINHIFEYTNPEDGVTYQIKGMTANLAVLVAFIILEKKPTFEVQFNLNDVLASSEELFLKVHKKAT
Set-up: Intact protein LC/MS covalent labelling, fragments in pools of five, 200 uM each, 4 °C
Settings: 24 h, 4 °C, pool of five; 200 µM; covalent
Procedure: Incubations were performed at 200 μM for each compound and 2 μM of protein (10 μM for BSA) for 24 h at 4 °C with moderate shaking. […] Following incubation, we used intact protein [compound left out] chromatography/mass spectrometry (LC/MS) to identify the fragments and quantify their labeling (Figure 3A). […]
Please state the value as a number alone, without comment.

Below, 5 compounds whose answers are already recorded.
compound	NUDT7
CC1CCCCN1C(=O)CCl (centres unmarked) [PCM-0102434]	0
CC1CC(=O)Nc2ccccc2N1C(=O)CCl (centres unmarked) [PCM-0102697]	0.22
C=CC(=O)NC1CCC2(CC1)OCCO2 [PCM-0102564]	0
Cc1c(C#N)c(NC(=O)CCl)n(-c2ccccc2)c1C [PCM-0102261]	0.3
CN(Cc1cc(Cl)cc(Cl)c1)C(=O)CCl [PCM-0102678]	0.45

For the next question, use this compound.
input: Would you kindly share the measured NUDT7 for CC(C)C(=O)NNC(=O)CCl [PCM-0103014] ?
output: 0

====

Biological target: NUDT7 (Homo sapiens, UniProt P0C024)
Construct: residues 14-235, E. coli, pNIC28-Bsa4, N-terminal His6 tag removed by TEV, construct 26672 Da
Design: Intact protein LC/MS covalent labelling, fragments in pools of five, 200 uM each, 4 °C
Details: 24 h, 4 °C, pool of five; 200 µM; covalent
Kind request: treat 0.1 as inclusive, so NUDT7 at 0.1 or higher is satisfied, anything lower is not satisfied.

Before answering, review these 4 worked examples.
compound	tested_on	assigned_label
CC(=O)c1cccc(NC(=O)CCl)c1	NUDT7 (Homo sapiens, UniProt P0C024)	not satisfied
C=CC(=O)N1CCCc2cc(C(=O)O)ccc21	NUDT7 (Homo sapiens, UniProt P0C024)	not satisfied
O=C(CCl)Nc1nnc(C2CC2)o1	NUDT7 (Homo sapiens, UniProt P0C024)	not satisfied
O=C(CCl)N1CCN(S(=O)(=O)c2cccs2)CC1	NUDT7 (Homo sapiens, UniProt P0C024)	satisfied

input: Does the reported NUDT7 for C=CC(=O)N1CCC(c2nccn2C)C1 (centres unmarked) fall at or above the 0.1 mark?
output: not satisfied

input: Does the reported NUDT7 for C=CC(=O)N1CCCc2ccccc21 fall at or above the 0.1 mark?
output: not satisfied

====

Biological target: NUDT7 (Homo sapiens, UniProt P0C024)
Construct: residues 14-235, E. coli, pNIC28-Bsa4, N-terminal His6 tag removed by TEV, construct 26672 Da
Parameters: Intact protein LC/MS covalent labelling, fragments in pools of five, 200 uM each, 4 °C
Conditions: 24 h, 4 °C, pool of five; 200 µM; covalent
NUDT7 listing for selected compounds.

compound	NUDT7
O=C(CCl)Nc1cc2c(cc1Cl)OCO2	0.13
Cc1cccc(N2CCN(C(=O)CCl)CC2)c1C	0.29
CC(=O)N1CCC(NC(=O)CCl)CC1	0

input: Would you kindly share the measured NUDT7 for O=C(CCl)N1CCC2(CC1)OCCO2 ?
output: 0

input: Would you kindly share the measured NUDT7 for O=C(CCl)N1CCCC1=O ?
output: 0

input: Would you kindly share the measured NUDT7 for O=C(CCl)NC(=O)OCc1ccccc1 ?
output: 0

input: Would you kindly share the measured NUDT7 for CC1CCCCC1N(C)C(=O)CCl (centres unmarked) ?
output: 0.12

input: Would you kindly share the measured NUDT7 for N#CC1(N2CCN(C(=O)CCl)CC2)CCCCC1 ?
output: 0

input: Would you kindly share the measured NUDT7 for CC(c1ccc(F)c(F)c1)N(C)C(=O)CCl (centres unmarked) ?
output: 0.14

input: Would you kindly share the measured NUDT7 for C=CC(=O)N1CCN(C(=O)c2ccc(Br)o2)CC1 ?
output: 0

input: Would you kindly share the measured NUDT7 for O=C(CCl)Nc1cccc(Cl)c1N1CCOCC1 ?
output: 0.14

input: Would you kindly share the measured NUDT7 for COc1ccc(N2CCN(C(=O)CCl)CC2)cc1 ?
output: 0

input: Would you kindly share the measured NUDT7 for C=CC(=O)Nc1cccc(F)c1 ?
output: 0

input: Would you kindly share the measured NUDT7 for CC1CCC(C#N)(N(C)C(=O)CCl)CC1 (centres unmarked) ?
output: 0.05

input: Would you kindly share the measured NUDT7 for C=CC(=O)N1CCn2c(cc3ccccc32)C1 ?
output: 0

input: Would you kindly share the measured NUDT7 for C=CC(=O)Nc1ccc(OC)c(F)c1 ?
output: 0

input: Would you kindly share the measured NUDT7 for CC(C)N(C(=O)CCl)C1CCCCC1 ?
output: 0.17

input: Would you kindly share the measured NUDT7 for C=CC(=O)N(C)CC(=O)N1c2ccccc2NC(=O)CC1C (centres unmarked) ?
output: 0

input: Would you kindly share the measured NUDT7 for CC(NC(=O)CCl)C(=O)N1CCCCC1 (centres unmarked) ?
output: 0

====

Assay: in vitro
Design: species or system CCD841, HEK293
Details: human, hb2 cells, read-out: HB-2 Cells Viability (%)
Quick rule for you: viability at 48 h, 10 µM under 80% gets 1, anything else gets -1.

input: Report whether reported viability at 48 h, 10 µM is lower than 80% (strictly) for CC(C)c1ccc(NC(=O)CCl)cc1
output: 1

input: Report whether reported viability at 48 h, 10 µM is lower than 80% (strictly) for Cl.O=C(CCl)N1CCN(c2ccccc2F)CC1
output: 1

input: Report whether reported viability at 48 h, 10 µM is lower than 80% (strictly) for O=C(CCl)N1CCN(S(=O)(=O)c2ccc(Cl)s2)CC1
output: 1

input: Report whether reported viability at 48 h, 10 µM is lower than 80% (strictly) for Cc1cc(NC(=O)CCl)n(-c2ccccc2C)n1
output: 1

input: Report whether reported viability at 48 h, 10 µM is lower than 80% (strictly) for CC(C)NC(=O)NC(=O)CCl
output: -1

====

viability at 48 h, 10 µM listing for selected compounds.
Assay: in vitro
Design: species or system CCD841, HEK293
Conditions: human, hb2 cells, read-out: HB-2 Cells Viability (%)
Lab note: write values as number then unit, every time.

compound	viability at 48 h, 10 µM
CC(NC(=O)CCl)C(=O)N(C)C (stereo not drawn) [PCM-0102754]	96%
C=CC(=O)N1CCC(NC(=O)c2cc(C)on2)CC1 [PCM-0102557]	101%
CC1(c2ccccc2)NC(=O)N(NC(=O)CCl)C1=O (stereo not drawn) [PCM-0102428]	91.2%
O=C(CCl)Nc1ccc(F)c(F)c1 [PCM-0102328]	14.3%
COc1ccc2nc(NC(=O)CCl)sc2c1 [PCM-0102330]	32.7%
Cc1ccc(CNC(=O)CCl)cc1 [PCM-0102660]	87.4%
Cl.O=C(CCl)N1CCN(c2ccccn2)CC1 [PCM-0102213]	84.5%
O=C(CCl)NC(=O)NC1CCCCC1 [PCM-0102692]	48.7%
C=CCNC(=O)NC(=O)CCl [PCM-0102709]	90%
C=CC(=O)N1CCCC(c2cnn(C)c2)C1 (stereo not drawn) [PCM-0102641]	107%

input: Would you kindly share the measured viability at 48 h, 10 µM for Cc1ccccc1NC(=O)CCl [PCM-0102887] ?
output: 90.2%

input: Would you kindly share the measured viability at 48 h, 10 µM for CN(Cc1cccc(C(F)(F)F)c1)C(=O)CCl [PCM-0102987] ?
output: 5.3%

input: Would you kindly share the measured viability at 48 h, 10 µM for CNC(=O)CNC(=O)CCl [PCM-0102279] ?
output: 108%

input: Would you kindly share the measured viability at 48 h, 10 µM for N#CC1(NC(=O)CCl)CCCCCC1 [PCM-0102465] ?
output: 80.7%

input: Would you kindly share the measured viability at 48 h, 10 µM for Cc1cc(NC(=O)CCl)n(-c2ccccc2F)n1 [PCM-0103066] ?
output: 64%

input: Would you kindly share the measured viability at 48 h, 10 µM for C=CC(=O)NCC1CCCS1 (stereo not drawn) [PCM-0102719] ?
output: 102%

input: Would you kindly share the measured viability at 48 h, 10 µM for CC1CCCCN1C(=O)CCl (stereo not drawn) [PCM-0102434] ?
output: 89.1%

input: Would you kindly share the measured viability at 48 h, 10 µM for O=C(CCl)NCc1nc2ccccc2s1 [PCM-0102803] ?
output: 55.2%

input: Would you kindly share the measured viability at 48 h, 10 µM for C=CC(=O)NCc1snnc1C [PCM-0103079] ?
output: 104%

All figures here come from paper PMC6556873.
